Tested on: RXF 393 renal
Assay: NCI tumour cell line growth inhibition, 48 h
Assign TGI to each entry below.
Answers are plain numbers, in µM.

COc1cc(/C=C2\C[C@H]3[C@@H]4CC=C5C[C@@H](O)CC[C@]5(C)[C@H]4CC[C@]3(C)[C@H]2O)ccc1OCCCn1ccnc1
43.4
COc1cccc(NC(=O)C(=O)C(C(=O)c2ccccc2F)C2OC(=O)c3ccccc32)c1 (stereo not given)
63.6
CC(C)(C)c1c2c(c(C(C)(C)C)c3c1OCN(Cc1ccccc1)C3)OCN(Cc1ccccc1)C2
36.2

// for each compound below, give its TGI
1. C=C(CN1CC2C[C@](C(=O)OC)(c3cc4ccccc4[nH]3)C1C(OC)C2OC)S(=O)(=O)c1ccccc1 (stereo not given in full)
2. O=C(c1ccco1)c1c(C(F)(F)F)n([O-])c2ccc(Cl)cc2[n+]1=O
3. CN(Cc1cc(Cl)cc(Cl)c1O)Cc1c(O)ccc2ccccc12

1. 10.1
2. 3.83
3. 33.6

// for each compound below, give its TGI
1. COc1cc(-c2cc(-c3cc(OC)c(OC)c(OC)c3)nc3nc(N)[nH]c(=O)c23)ccc1Oc1ccnc2cc(Cl)ccc12
2. CSc1ccc(/C=C2\N=C(c3ccccc3)N(c3nc4cc(C)c(C)cc4s3)C2=O)cc1

[9.35, 62.3]

====

Assign TGI to each entry below.
System: OVCAR-5 ovarian
Assay: NCI tumour cell line growth inhibition, 48 h

Here is how some molecules turned out for TGI.
Cc1c2ccncc2c(C)c2c1[nH]c1ccc(OCC(F)(F)F)cc12
2.86 µM
COc1ccc(C2C=C(c3ccc4c(c3)OCO4)Oc3c2c(=O)oc2ccccc32)cc1OC (stereo not drawn)
> 100 µM
OCCOc1ccccc2cccc1-2
> 100 µM
COc1cc(C2C(Cl)C(=O)N2NC(=O)c2ccc(N)cc2)cc(Br)c1O (stereo not drawn)
38.8 µM
O=C(CNC(c1ccccc1)(c1ccccc1)c1ccccc1)NC1CCCCC1NC(=O)CNC(c1ccccc1)(c1ccccc1)c1ccccc1 (stereo not drawn)
> 100 µM

// for each molecule below, give its TGI
1. Cc1cc(C)nc(NS(=O)(=O)c2ccc(Nc3c4ccc(Cl)cc4nc4c(C(=O)NCCN(C)C)cccc34)cc2)n1
2. O=C(CCCl)NNC1=NCCCN1
3. CN1CCN(C)C12C=CC=CC21CC1
4. O=C1C=CC(=O)c2c1ccc1c3ccccc3n(-c3ccccc3[N+](=O)[O-])c21
5. O=c1c2cc(Cl)cc(Cl)c2oc2nc3n(c(=O)c12)CCCS3
6. O=C1C=CC(=O)c2c1ccc1c3ccccc3n(Cc3cccc([N+](=O)[O-])c3)c21
7. CN(C)c1ccc(/C=C/C2=[N+](C)c3ccccc3C2(C)C)cc1

> 100 µM
> 100 µM
> 100 µM
37.5 µM
> 100 µM
> 100 µM
22.4 µM

// for each molecule below, give its TGI
1. N#C[Se]CCCNS(=O)(=O)C1CC2C=CC1C2 (stereo not drawn)
2. CCOC(=O)c1c2c(c(O)c3ccccc3c(O)n(Cc3ccccc3)c1C)C(=O)C=CC2=O

1. 5.13 µM
2. > 100 µM

// for each molecule below, give its TGI
1. COc1ccc2cc(-c3nc(N)nc(N4N=C(C)CC4(C)C)n3)c(=N)oc2c1
2. O=Cc1ccc(CCl)cc1
3. Cc1ccc2nc(C=Nc3ccc(Cl)cc3)cc(C)c2c1
4. CSC12c3cc(C)n(-c4ccccc4)c3CC(C)(C)CN1C(=O)C2Oc1ccccc1 (stereo not drawn)

41.3 µM
38.8 µM
> 100 µM
> 100 µM

// for each molecule below, give its TGI
1. COc1cc(C(=O)Nc2cc(OC)c3ccn(C)c3c2)cc2c1C[C@]1(C)CC[C@@H](O)C(C)(C)[C@H]1O2
2. Cn1c(=O)sc2cc(C(=S)N3CCC(Cc4ccccc4)CC3)ccc21
3. O=C(O)CCCc1ccc2ccccc2c1

1: > 100 µM; 2: > 100 µM; 3: > 100 µM

// for each molecule below, give its TGI
1. O=C1C(Cl)N(c2cccc([N+](=O)[O-])c2)C1c1c[nH]c2ccccc12 (stereo not drawn)
2. CCOP(=O)(OCC)/C(C#N)=C/c1cnc[nH]1

1. 37.4 µM
2. > 100 µM

// for each molecule below, give its TGI
1. Cc1cccc(-c2cc(=O)c3c(C)cc(C)nc3[nH]2)c1
2. COc1ccc(-n2ccnc2-c2cc(OC)c(OC)c(OC)c2)cc1
3. O=C1CCSC2=C1SCc1sccc12
4. COc1cc(/C=C2\C[C@H]3[C@@H]4CC=C5C[C@@H](O)CC[C@]5(C)[C@H]4CC[C@]3(C)[C@H]2O)ccc1OCCCn1ccnc1

["> 100 µM", "> 100 µM", "> 100 µM", "23.3 µM"]

Tell me the measured TGI of CC1C(OC2O[C@@H]3O[C@@]4(C)CC[C@H]5[C@H](C)CC[C@@H](C2C)[C@@]35O4)O[C@@H]2O[C@@]3(C)CC[C@H]4[C@H](C)CC[C@@H]1[C@@]24O3 (stereo partly drawn) , please.
> 50 µM
